Every entry's value here was drawn from PubChem BioAssay (NCI).

Tested on: SK-MEL-5 melanoma
Experiment: NCI-60 one-dose screen, 48 h (100 = growth as untreated, 0 = no growth, -100 = all killed)
Settings: 10 µM
Protocol: Growth inhibition of the SK-MEL-5 human tumor cell line is measured as a screen for anti-cancer activity. Cells are grown in 96 well plates and exposed to the test compound for 48 hours. Compounds are tested at a single concentration, which is 10^-5 M for most compounds. The reported endpoint is percent growth (GI% or GIPRCNT), where numbers from 0 - 100% represent growth inhibition, and numbers from -100% - 0 represent cell death. For example, a value of 40 represents 60% growth inhibition. […]
The panel holds about 83,000 compounds, 20% with a hit somewhere; the sample as a whole holds those more often.
Assay Readout: growth (%)
Report the value in % with no unit label.

**Q:** Look up growth: `O=C(NC(=S)Nc1ccccn1)c1ccccc1`
**A:** 93.3

**Q:** Similarly, `CN(CC(=O)O)c1ccc(/C=C/c2ccnc3ccccc23)cc1` ?
**A:** 93

**Q:** Similarly, Cc1cc(O)c2c(c1O)C(=O)C13C(=C2O)C(=O)C2C(O)C1C1C(O)C3C(=O)C3=C(O)c4c(O)cc(C)c(O)c4C(=O)C321 (stereo not given) ?
**A:** -74.9

**Q:** Similarly, `COc1cc(N)ccc1Nc1c2ccccc2nc2ccccc12` ?
**A:** 85

**Q:** Similarly, COc1cccc(C(c2cc3c(cc2O)OCO3)N2CCOCC2)c1OC (stereo not given) ?
**A:** 99.1

**Q:** Similarly, `CCC(C)(c1ccc(O)c(C)c1)c1ccc(O)c(C)c1` ?
**A:** 95.2

**Q:** Similarly, `Cc1cc(Cl)ccc1NC(=O)/C(Cl)=C1/Sc2ccccc2NC1=O` ?
**A:** 90

**Q:** Similarly, `O=Nc1ccc(Nc2ccccc2)cc1` ?
**A:** 87.9

**Q:** Similarly, CC1CCC2(C(=O)O)CCC3(C)C(=CCC4C5(C)CC(O)C(O)C(C)(CO)C5C(O)CC43C)C2C1C (stereo not given) ?
**A:** 4.98

**Q:** Similarly, `ClCCn1c(CCl)nc2ccc(Cl)cc21` ?
**A:** -94.9

**Q:** Similarly, `Nc1nc(N)c2cc(Sc3ccc4ccccc4c3)ccc2n1` ?
**A:** 23.4

**Q:** Similarly, `N#CC(=C1C=CC(=NO)C=C1)c1ccccc1` ?
**A:** 2.56

**Q:** Similarly, `O=[N+]([O-])c1cc(S(=O)(=O)Nc2ccccc2)ccc1Cl` ?
**A:** 92.8

**Q:** Similarly, `O=C(O)c1ccccc1.[Ag]` ?
**A:** 28.5

**Q:** Similarly, O=C1C(Cl)=C(Cl)C(Cl)(Cl)C(Cl)C1(Cl)Cl (stereo not given) ?
**A:** 106

**Q:** Similarly, `O=S(=O)(c1cc(Cl)ccc1O)c1cc(Cl)ccc1O` ?
**A:** 53.5

**Q:** Similarly, `O=C1c2cccc3cc([N+](=O)[O-])cc(c23)C(=O)N1CCN1CCCC1` ?
**A:** -88.6

**Q:** Similarly, `COc1ccc(C(C#N)=C2C=CC(=NO)C=C2)cc1` ?
**A:** 80.3

**Q:** Similarly, `CN(C)CCNc1cccc2sc3ccc(O)cc3c(=O)c12` ?
**A:** 44

**Q:** Similarly, `C=C1N(C)c2ccc(Cl)cc2C1(C)C` ?
**A:** 90.5
